Percent Effect: recorded values
- Assay procedure: In vitro enzyme assay to detect hydrolysis of chlorophenol red-beta-D-[…] directly proportional to the number of Toxoplasma stably expressing beta-galactosidase
- Format: functional, organism-based, Toxoplasma gondii
- Design: scale not given: in the data most compounds retested in dose-response had high values
- Condition context: 10 µM
Hit rate of the full screen: of about 85,000 compounds, about 440 (0.52%) showed an effect of 50% or more. The sample as a whole holds a higher share of strong results than the screen did.
Measured quantity: Percent Effect (%)

[[record]]
smiles_code = "Cc1cccc(C(=O)Nc2c(C(=O)N(C)C)nn(C)c2C)c1"
meas_value = 18.52

[[record]]
smiles_code = "Cc1cc(NCCO)nc(N2CCC(Cc3ccccc3)CC2)c1C#N.O=C(O)C(=O)O"
meas_value = 62.98

[[record]]
smiles_code = "Cc1c(NC(=O)c2cccc(Br)c2)c(C(=O)N(C)C)nn1C"
meas_value = 13.13

[[record]]
smiles_code = "Cc1c(NC(=O)c2ccc(Br)cc2)c(C(=O)N(C)C)nn1C"
meas_value = 46.94

[[record]]
smiles_code = "Cc1ccc(C(=O)Nc2c(C(=O)N(C)C)nn(C)c2C)cc1C"
meas_value = 61.35

[[record]]
smiles_code = "N[C@@H]1CCC[C@@H](Oc2ccc(F)cc2Oc2ccccc2)[C@@H]1O"
meas_value = "2e-14"

[[record]]
smiles_code = "O=C(N1CCOCC1)[C@@]12CCO[C@@H]1CCN(C1CCC1)C2.O=C(O)C(F)(F)F"
meas_value = 41.32

[[record]]
smiles_code = "O=C(N1CCOCC1)[C@@]12CCO[C@@H]1CCN(C1CCCCC1)C2.O=C(O)C(F)(F)F"
meas_value = -8.917

[[record]]
smiles_code = "COc1ccc(C(=O)Nc2c(C(=O)N(C)C)nn(C)c2C)cc1"
meas_value = 52.86

[[record]]
smiles_code = "Cc1ccc(C(=O)Nc2c(C(=O)N(C)C)nn(C)c2C)cc1"
meas_value = 18.52

